Target: T1, HLA-DQ2.5/secalin 2 peptide complex on Ba/F3 cells (human; rye)
T1 construct: also called Ba/F3-HLA-DQ2.5/secalin 2 peptide
Experiment: FACS
Lab note: compare FIG. 30 FACS value (IC17=0, DQN0139bb=100) with 60, writing yes (1) if less and no (0) if equal or more.

DQN0225dd (antibody, human IgG1, kappa, V domains shown, also called DQN0225Hd; DQN0225Ld) VH: QSLEESGGGLVKPGGTLTLTCTASGFSFSSAYYMCWVRQAPGKGLEWIACIYVGSGSTYYASWAQGRCTISKASSTTVTLQMTSLTAADTATYFCARDPLIYYYYGELNLWGPGTLVTVSS VL: AVVLTQTASPVSAPVGGTVTIKCQASEDISSNLAWYQQKPGQRPKVLIYSASTLASGVSSQFKGSGSGTQFTLTISDLECADAATYYCQSYYDISSVTFGGGTKVEIKR : no (0)
DQN0282ff (antibody, human IgG1, kappa, V domains shown, also called DQN0282Hf; DQN0282Lf) VH: QSVEESGGRLVTPGTPLTLSCKASGFDFSIYYMSWVRQAPGKGLEWIGVINSGGGVTWYASWVKGRFTISKTSTTVDLKITSPTTEDTATYFCARLGDSNHYDLWGPGTLVTVSS VL: AYDMTQTPSSVSAAVGGTVTIKCQASETISSYLAWYQQKPGQRPQLLIYDASNLASGVPSRFKGSGSGTEFTLTISDLECADAATYYCQTHYYITSTTFGGGTKVEIKR : yes (1)
DQN0370hh (antibody, human IgG1, kappa, V domains shown, also called DQN0370Lh) VH: QSLEESGGGLVKPGGPLTLTCTASGFSFSSAYYMCWVRQAPGKGLEWIACIYVGSGSTYYTSWAKGRFTISKVSSTTMTLQMTSLTAADTATYFCARDPLIYYYYGELNLWGPGTLVTVSS VL: AVVLTQTASPVSAPVGGTVTIKCQASEDIYSNLAWYQQKPGQRPKVLIYSASTLASGVSSRFKGSRSGTEYTLSITDLGCADAATYYCQAYYDIGGVTFGGGTKVEIKR : no (0)
DQN0324hh (antibody, human IgG1, kappa, V domains shown, also called DQN0324Lh) VH: QSLEESGGDLVKPGASLALTCTASGFSLINNYYMCWVRQAPGKGLEWIACIYAGLGGWTYYASWAKGRFTISKTSSTTVTLQMSSLTVADAATYFCARAATTYYHFNLWGPGTLVTVSS VL: AVVLTQTESPVSAAVGDTVTIKCQASQSIGNALAWYQQKPGQPPKLLIYDASTLASGVPSRFKGSGSGTQFTLTISDLECADAATYYCQSYDYGSSADTYTFGGGTKVEIKR : yes (1)
DQN0235ee (antibody, human IgG1, kappa, V domains shown, also called DQN0235He; DQN0235Le) VH: QQQLEESGGGLVKPGGTLTLTCKAGIDFSTYYYMCWVRQAPGKRPEWIACIFDGDGSTYYASWVNGRFTISKASSTTVTLRMTSLTAADTATYFCARSAGGSSSFGYFNLWGPGTLVTVSS VL: AYDMTQTPSSVSAAVGGTVTIKCQASQSISSSYLAWYHQKPGQSPKLLIYSASTLASGVPSRFKGSGSGTEFTLTISDLACADAATYYCQSYYYFSSNAWHTFGGGTKVEIKR : no (0)

(Q) A record lists DQN0271hh (antibody, human IgG1, kappa, V domains shown, also called DQN0271Lh) VH: QSLEESGGGLVKPGASLTLTCKASGFSFSSGYYMCWVRQAPGKGLEWIACIYAGSPDLTYYATWAKGRLTISTTSSTTVTLQLTSLTAADTATYFCARDPGNWGGYDDVRLWGPGTLVTVSS VL: AQVLTQTPSPVSAAVGGTVTISCQSSQSIYSNYLSWFQQKTGQPPKLLIYRASTLASGVPSRFKGSGSGTEFTLTISGVECDDAATYYCQGYYSGAIWTFGGGTKVEIKR . Is its FIG. 30 FACS value (IC17=0, DQN0139bb=100) below 60?
(A) no (0)

(Q) A record lists DQN0334bb (antibody, human IgG1, kappa, V domains shown, also called DQN0334Hb; DQN0334Lb) VH: QQQLEESGGDLVQPEGSLTLTCKASGFDFSFNAMCWVRQAPGRGPEWIACIYNGNGSTYYASWAKGRFTISKTSSTSVTLQMTSLTAADTATYFCARGGYGLGYAGYGDVNYFNLWGPGTLVTVSS VL: AVVLTQTASPVSAPVGGTVTIKCQASEDIYFLLAWYRQKPGQPPKLLIYGASTLASGVPSRFKGSGSGTEYTLTISDLECADAATYYCQSYWYGDSGPNTFGGGTKVEIKR . Is its FIG. 30 FACS value (IC17=0, DQN0139bb=100) below 60?
(A) yes (1)

(Q) A record lists DQN0223hh (antibody, human IgG1, kappa, V domains shown, also called DQN0223Lh) VH: QQQLEESGGGLVKPGGTLTLTCKASRIDFSTYYYICWVRQSPWKGLEWIACIYSGDGYTYYPSWAKGRFSISKTSSTTVTLQVTSLTAADTATYFCARSYGGSSASAYFTLWGPGTQVTVSS VL: AVVLTQTASPVSAPVGGTVTIKCQASQSIGSNLGWYQQKPGQPPKLLIYGASALASGVPSRFKGSGSGTQFTLTINDLECADAATYYCQGYYYSSSAEWHSFGGGTKVEIKR . Is its FIG. 30 FACS value (IC17=0, DQN0139bb=100) below 60?
(A) yes (1)
